tested on: HS 578T breast; assay: NCI-60 one-dose screen, 48 h (100 = growth as untreated, 0 = no growth, -100 = all killed); conditions: 10 µM unless noted
About 83,000 compounds went through this panel and 20% of them were active in at least one assay; those are over-represented in the sample as a whole. Calls of active or inactive are those of the source. How the source made its calls: active means growth percent below 10; inactive means the rest.
measured.parameter: growth

> print(dat)
                                    molecule                     result
 1                          COc1ccc(N)c(S)c1            102% (inactive)
 2            Cc1ccc2c(c1)Nc1ccc(C)cc1C2(C)C            113% (inactive)
 3          N#CC(C#N)=C(C#N)c1c[nH]c2ccccc12           87.7% (inactive)
 4         Clc1ccc2c(c1)nnn1c3ncccc3c(Br)c21           16.7% (inactive)
 5  Cc1cn(-c2nc3c(c(NCc4ccccc4)n2)COCC3)c2cccc(C(N)=O)c12  83.5% [0.5 µM] (inactive)
 6  COc1ccc2c(c1)/C(=C/c1c(-c3cc(OC)c(OC)c(OC)c3Br)nc3sccn13)C(=O)N2           83.2% (inactive)
 7  COc1ccc(C2CC(c3cc(Cl)c(C)cc3OC)=NN2c2ccc(S(N)(=O)=O)cc2)cc1OC (configuration not stated)            101% (inactive)
 8  Fc1ccc(/C=N/n2c(-c3cc(Cl)cc(Cl)c3Cl)nn(CNc3ccc(Cl)nn3)c2=S)cc1            108% (inactive)
 9               c1cncc(-c2nc3ccccc3[nH]2)c1           78.4% (inactive)
10  CCCCOc1nc2ccc(Cl)cc2cc1/C=C/C(=O)/C=C/c1ccc(OC)cc1            107% (inactive)
11  O=C(Cn1c2ccccc2c2ccncc21)N/N=C/c1c[nH]c2ccccc12           53.2% (inactive)
12              CN(CCNCc1ccccn1)CCNCc1ccccn1           48.9% (inactive)
13          CSc1ccc(C(=O)C[n+]2cccc(C)c2)cc1           98.4% (inactive)
14  CC(CN(C)C)CN1c2ccccc2CCc2ccccc21 (configuration not stated)           86.4% (inactive)
15  O=C(COc1ccc(Cl)cc1Cl)N1N=C(c2ccc(Cl)cc2Cl)CC1(O)c1cc(F)c(Cl)cc1Cl (configuration not stated)            122% (inactive)
16      CCc1c(C)c2cc3c(c(C)c2oc1=O)OCC(=O)N3           59.5% (inactive)
17  COc1cc(C(=O)NNC(=O)c2ccccc2C(=O)O)cc(OC)c1OC           67.8% (inactive)
18  COc1ccc(C2=NN(C(=O)COc3ccc(Cl)cc3)C(O)(c3cc(F)c(Cl)cc3Cl)C2)cc1OC (configuration not stated)             22% (inactive)
19  O=C1CCC(c2c(O)cc(O)c3c(=O)c(O)c(-c4ccc(O)c(O)c4)oc23)N1 (configuration not stated)            100% (inactive)
20                  CCNc1cc(S(=O)(=O)O)ccc1C            104% (inactive)
21  CC1(C)N=C(N)N=C(N)N1c1ccc(OCC(=O)Nc2ccccc2)c(Cl)c1           97.7% (inactive)
22  O=S(=O)(CCN1CCOCC1)Nc1cncc(-c2ccc3ncnc(Nc4ccc(F)c(Cl)c4)c3c2)c1             37% (inactive)

Cited source: PubChem BioAssay (NCI)
